B1: TPR t1 (parent)
chain: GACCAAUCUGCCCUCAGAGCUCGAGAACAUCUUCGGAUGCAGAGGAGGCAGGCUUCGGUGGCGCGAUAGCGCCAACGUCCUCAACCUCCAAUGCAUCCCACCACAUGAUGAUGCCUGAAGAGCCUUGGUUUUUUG

Variants of: B1
Test: polymerase ribozyme fitness, log enrichment relative to wild type (log ratio); higher = more active; in vitro selection for triplet polymerase activity
measure: polymerase ribozyme fitness (log ratio)
Number, no unit, nothing else.

Input line: Which value of polymerase ribozyme fitness (log ratio) has been reported for "GACCAAUCUGCCUUGAGAGCUCGAGAACAUCUUCGGAUGCAGAGGAGGCAGGCUUCUGUGGCGCGAUAGCGCCAACGUCCUCAACCUCCAAUACAUCCCACCACAUGAUGAUGCCUAAAGAGCCUUGGUUUUUUG" in the records?
Output line: -1.62

Input line: Which value of polymerase ribozyme fitness (log ratio) has been reported for "GACCAAUUUGCCCUCAGAGCUCGAGAACAUCUUCGGAUGCAGAGGAGGCAGGCUUUGGUGGCGCGAUAGCGCCAACGUCCUCAACCUCAAAUGCAUCCCACCACAUGAUGAUGCCUGUAGAGCCUUGGUUUUUUG" in the records?
Output line: -1.04

Input line: Which value of polymerase ribozyme fitness (log ratio) has been reported for "GAGCAAUCUGCCCUCAGAGCUAGAGAACAUCUUCGGAUGCAGAGGAGGCAGGCUUCGGUGGCGCGAUAGCGCCAACGUCCUCAACCUCCAAUGCAUCCCACCACAUGAUGAUGCCUGAAGAGCCUUGGUUUUUUG" in the records?
Output line: -4.35

Input line: Which value of polymerase ribozyme fitness (log ratio) has been reported for "GACCAAUCUGCCCUCAGAGCUCGAGAACAUCUUCGGAUGCAGAGGAGGCAGGCUUCGGUGACGCGAUAGCGCCAACGUCCUCAACCUCCAAUGCAUCCCACCACAUGAUGAUCCCUGAAGAGCCUUGUUUUUUUG" in the records?
Output line: -4.09

Input line: Which value of polymerase ribozyme fitness (log ratio) has been reported for "GACUAAUGCGGCCUCAGAGCUCGAGAACAUCUUCGGAUGCAGAGGAGGCAGGCUUCGGUGGGGCGAUAGCGCCAACGUCCUCAACCUCCAAUGCAUCCCACCACAUGAUGAUGCCUGAAGAGCCUUGGUUUUUUG" in the records?
Output line: -0.314

Input line: Which value of polymerase ribozyme fitness (log ratio) has been reported for "GACCAAUCUGCCCUCAGAGCUCGAGAACAUCUUCGGAUGCAGAGGAGGCAGGCUUAGGUGGCGCGAUAGCGCCAAGGUCCUCAACCUCCAAUGCAUCCCACCACAUGAUGAUGCCUGAAGAGCCUUGGUUUUUUG" in the records?
Output line: 0.138

Input line: Which value of polymerase ribozyme fitness (log ratio) has been reported for "GACCAAUCUGCCCUCAGAGCUCGAGAACAUCUUCGGAUGCAGAGGAGGCAGGCUGUGGUGGCGCGAUAGCGCCAACGUCCUCAACCUGCAAUGCAUCCCACCACAUGAUGAUGCCUGAAGAGCCUUGGUUUUUUG" in the records?
Output line: -2.34

Input line: Which value of polymerase ribozyme fitness (log ratio) has been reported for "GACCUAUCUGCCCUAAGAGCUCGAGAACAUCUUCGGAUGCAGAGGAGGCAGGCUUCGGUGGCGCGAUAGCGCCAACGUCCUCAACCUCCAAUGCAUCCCACCACAUGAUGAUGCCUGAAGAGCCUUGGUUUUUUG" in the records?
Output line: -2.36

Input line: Which value of polymerase ribozyme fitness (log ratio) has been reported for "GACCAAUCUGCCCUCAGAGCUCGAGAACAUCUUCGGAUGUAGAGGAGGCAGGCUUCGGUGGCGCGAUAGCGCCAACGUCCUCAACCUCCAAUGCAUCCCACCACAUGAUGAUGCCUGAAGAGACUUGGUUUUUUG" in the records?
Output line: 0.43

Input line: Which value of polymerase ribozyme fitness (log ratio) has been reported for "GACCAAUCUGCCCUCAGACCUCGAGAACAUCUUCGGAUGCAGAGGAGGCAGGCUUCGGUGGAGCGAUAGCGCCAACGUCCUCAACCUCCAAUGCAACCCACCACAUGAUGAUGCCUGAAGAGCAUUGCUUUUUUG" in the records?
Output line: -5.42

Input line: Which value of polymerase ribozyme fitness (log ratio) has been reported for "GACAAAUCUGCCCUCAGAGCUCGAGAACAUCUUCGGAUGCAGAGGAGGCAGGCUUCGGUGGCGCGAUAGCGCCAACGUCCUCAACCUACAAUGCAUCCCACCACAUGAUGAUGCCUGAAGAGCCUUGGUUUUUUG" in the records?
Output line: -1.56

Input line: Which value of polymerase ribozyme fitness (log ratio) has been reported for "GACCAAUCUGCCCUCAGAGCUCGAGAACAUCUUUGGAUGCAGAGGAGGCAGGCUUCGGUGGCGCGAUAGCGCCAACGUCCUCAACCUGCAAUGCAUCCCACCACAUGAUGAUGCCUGAAGAGCCUUGGUUUUUUG" in the records?
Output line: -3.99

Input line: Which value of polymerase ribozyme fitness (log ratio) has been reported for "GACCAAUCUGCCCUCAGAGCUCGAGAACAUCUGCGGAUGCAGAGGAGGCAGGCUUCGGUGGCGCGAUAGCGCCAACGUCCUCAACCUCCAAUGCAUCCCACCACAUGAUGUUGCCUGAAGGGCCAUGGUUUUUUG" in the records?
Output line: -6.73

Input line: Which value of polymerase ribozyme fitness (log ratio) has been reported for "GACCAAUCUGCCCUCAGAGCUCGGGAACAUCUUCGGAUGCAGAGGAGGCAGACUUCGGUGGCGCGUUAGCGCUAACGUCCUCAACCUCCAGUGCAUCCCACCACAUGAUGAUGCCUGAAGAGCCUUGGUUUUUUG" in the records?
Output line: -4.6

Input line: Which value of polymerase ribozyme fitness (log ratio) has been reported for "GACCACUCUGCCCUCAGCGCUCGAGAACAUCUUCGGAUGCAGAGGAGGUAGGCUUCGGUGGCGCGAUAGUGCCAACGUCCUUAACCUCCAAUGCAUCCCACCACAUGAUGAUGCCUGAAGAGCCUUGGUUUUUUG" in the records?
Output line: -5.19

Input line: Which value of polymerase ribozyme fitness (log ratio) has been reported for "GACCUAUCUGCCCUCAGAGCUCGAGAACAUCUUCGGAUGCAGAGGAGGCAGGCUUCGGUGGCGCGAUAGCGCCAACGUCCUCAACCACCAAUGCAUCCCACCACAUGAUGAUGCCUGAAGAGCCUUGGUUUUUUG" in the records?
Output line: -0.245

Input line: Which value of polymerase ribozyme fitness (log ratio) has been reported for "GACCAAGCUACCCUCAGAGCUCGAGAACAUCUUCGGAUGCAGAGGAGGUAGGCUUCGGUGGCGCGAUAGCGCCAACGUCCUCAACCUCCAAUGCAUCCCACCACAUGAUGAGGCCUGAAGAGCCUUGGUUUUUUG" in the records?
Output line: -2.64

Input line: Which value of polymerase ribozyme fitness (log ratio) has been reported for "GACCAAUCUGCCCUCAGAGCUCGAGAACAUCUUCGGAUGCAGAGGAGGCAGGCUUCGGUGGCGCGAUAGCGCGAACGUCCUCAACCUCCAAUGCAUCCCACCACAUGAUGAUGCCUAAAGAGCAUUGGUUUUUUG" in the records?
Output line: 0.864

Input line: Which value of polymerase ribozyme fitness (log ratio) has been reported for "GACCAAUCUGCCCUCAGAGCCCGAGAACAUCUUCGGAUGCAGAGGAGGCAGGCUUCGGUGGCGCGAUAGCGCCAACGUCCUCAACCUCCAAUGCCUCCCACCACAUCAAGAUACCUGAAGAGCUUUGGUUUUUUG" in the records?
Output line: -7.51

Input line: Which value of polymerase ribozyme fitness (log ratio) has been reported for "GACCAAUCUGCCCUAAGAGCUCGAGAACAUCUUCGGAUGCAGAGGAGGCAGACUUCGGUGGCGCGAUAGCGCCAACGUCCUCAACCUCCAAUGCAUCCCACCACAUGAUGAUGCCUUAAGAGCCUUGGUUUUUUG" in the records?
Output line: 0.0979

Input line: Which value of polymerase ribozyme fitness (log ratio) has been reported for "GACCAAGCUGCCCUCAGAGCUCGUGAACAUCUUCGGAUGCAGAGGAGGCAGGCUUCGGUGGCGCGAUAGCGCCAACGUCCUCAACCUCCAAUGCAUCCCACGACAUGAAGAUGCCUGAAGAGCCUUGGUUUUUUG" in the records?
Output line: -4.85

Input line: Which value of polymerase ribozyme fitness (log ratio) has been reported for "GACCAAUCUGCCCUCAGAGCUCGAGAACAUCUUCGGAUGCAGAGGAGGCAGGCUUCGGUAGCGCGAUAGCGCCAACGUCCUCAACCUCCAAUGCACCCCACCACAUGAUGAUGCCUGGAGAGCCUUGGUUUUUUG" in the records?
Output line: -0.126

Input line: Which value of polymerase ribozyme fitness (log ratio) has been reported for "GACCAAUCUGCUCUCAGAGCUCGAGAACAUCUUCGAAUGCAGAGGAGGCAGGCUUCGGUGGCGCGAUAGCGCCAACGUCCUCCACCUCCAAUGCAUCCCACCACAAGAUGAUGCCUGAAGAGCCUUGGCUUUUUU" in the records?
Output line: -1.4

Input line: Which value of polymerase ribozyme fitness (log ratio) has been reported for "GACCAAUCUGCCCUCAGAGCUCGAGAACAUCUUCGGAUGCAGAGGAGGCAGGCUUCGGUGGCGCGAUAGCACCAACGUCCUCAACCGCCAAUGCAUCCCACCCCACGAUGAUGCCUGAAGAGCGUUGGUUUUUUG" in the records?
Output line: -3.7
